Method Summary: yeast display, Sf9 membrane polyspecificity reagent, FACS + sequencing; frameworks hold sequencing errors
Recorded Metric: polyreactivity (PSR sort gate)

Check out these entries, answers already filled in.
Sequence Content	polyreactivity (PSR sort gate)
QVQIVESGGGLVQAGGSLRISCAASGRTLRYNTMGWSRKAPGKERELVAAISIRGGSTYYADSVKGRFTISRDNAKYTVYLQMISLKAEDTAVYYCNVVFQKAARIVEVDYWGQGTQVSVSS	high polyreactivity
QVQLVESGGGLVQAGGSLRLSCAASGRIFKFNAMGWYRPAPGKERELVAAITTGGGSTYYADSVKGRFTISRDNAKNTVYLQMNSLKPEDSAVYYCATDRRHVYSSRRYYYWVQGTQVTVSS	high polyreactivity
QVQLVESGGGLVQAGGSLRLSCAACGRTFQHYAMGWYRQAPGKERELVAAISSGGRTYYADSVKGRFTISRDNAKNTVYLLMNSLKPEDTAVYYCAARYHGRDPRQIRYGYWGQGTQVNVSS	high polyreactivity
QVQLVESGGGLVQAGGSLRLNCAASGRIFKYNTRGWYRQAPGKERQLVAAISLSTGSGGGTRYADSVKGRFTISRDNAKNTVYLKMNSLNPEDTAVYYCAARHRYTNEYDYWGQGTQVTVSS	low polyreactivity
QVQHVESGGGLVQAGGSLRLSCAASGFTSIMYAMGWYRQAPGKERDLVASISISDGSTYYADSVKGRFTISRDNAKNTVYLQMNILKPEDTAVYYCAADVYVWYTYSYDYWGQGTKVTVSS	low polyreactivity

Below is a list of sequences. For each, state its recorded polyreactivity (PSR sort gate).
1. QVQLVESGGGLVQAGGSLRLSCAASGLPFRDYAMGWYRQAPGTERELVAAISDGDDSTSYADSVKGRFTSSRDNAKTTGYLQMNSQNPEDTAVYDCAPYLSDPDFLAGIYGLYNYWGQGTQVTVSS
2. QVQLVESGGGLVQAGGSLRLRCAASGIIIYDYAMGWYRQAPGKERELVAAISSTAVGTYYADSVKGRFTISRDNAKNTVYLQMNSLKPVDTAVYYCAAAVSPHSEGFGEYNYWGQGTQVTVSS
3. QVQLVESVGGLVQAGGSLRLSCAASGSTFAFNAMGWYRQAPGKEREFVAAITWRGGSTYYADSVKGRFTISRDNAKNTVYLQMNSLKPEDTAVYYCARRPGYALTWRVSGRYDYWGQGTQVTVSS

Ans.
low polyreactivity
low polyreactivity
high polyreactivity

Hello, I would appreciate it if you could give polyreactivity (PSR sort gate) for each entry below.
1. QVQLVESGGGLVQAGGSLRLSCAASGSTFPWNAMGWYRQAPGKERELVAAINYGNGSTYYADSVKGRFTISRDNAKNTVYLQMNSLKPVDTAVYYCNADFTGTRSDSVTPEYEYWGQGTQVTVSS
2. QVQLVESGGGLVQAGGSLRLSCAASGLTFGRNAMGWYRQAPGKERELVAAISRSGGRTSYADSVKGRFTISRDNAKNTVYLHMNSLKPEDTAVYYCAARSPIYRTTYYYWGQGTQVTVSS
3. QVQLEESGGGLVQAGGSLRLSCAASGFTFAYYAMGWYRQAPGKERELVAGISWRGGRTYYADSVKGRFTISRDNAKNTVYLQMNSLKPEDTAVYYCNARNSYRPGRGYDYGGQGTQVTVSS

Ans.
1. low polyreactivity
2. high polyreactivity
3. high polyreactivity

====

Method Summary: yeast display, Sf9 membrane polyspecificity reagent, FACS + sequencing; frameworks hold sequencing errors
Recorded Metric: polyreactivity (PSR sort gate)

Sequence Content	polyreactivity (PSR sort gate)
QVQLVESGGGLVQAGGSLRLSCAASGRIFGRYAMGWYRQAPGKEREFVAAISKRGGGTYYADSVKGRFTISRDNAKNTVYLQMISLKPEDTAVYYCAVDNSPGFDDYDYWGQGTQVTVSS	high polyreactivity
QVQLVESGGGLVQAGGSLRLSCAASGFIFAEYAMGWYRQAPGKERELVATINIGGSTYYADSVKGRFTISRDNAKNTVYLQMTSLKPEDTAVYYCAAEFWWGDGSQGIYDYDYWGQGTQVSVSS	low polyreactivity
QVQLVESGGGLVQAGGSLRLSCAASGFIFGIYDMGWYRQAPGKERELVAAITYSGSSTYYADSVKGRFTISRDNAKNTVYLQMNSLKQEDTAVYYCNKTPWDWDYWDPEYYYWGQGTQVTVSS	high polyreactivity
QVQLVESGGGLVQAGGSLRLSCAASGLTFYSYAMGWSRQAPGKERELVAAITSSGSITYYADSVKGRFTISRDNAKNTVYLQMNSLKPEDTAVYYCAARPYRVRGQRFEGNYWGQGTQVTVSS	high polyreactivity

The sequence listed as QVQLVESGGGLVQAGGSLRLSCAASGSIFKKYAMGWYRQAPGKERELVAAISKSGGSTYYADSVKGRFTISRDNAKNTVYLQMNSLKPEDTAVYYCAAAAGGSAYWDYDYWGQGTQVTVSS shows polyreactivity (PSR sort gate) equal to low polyreactivity

====

Method Summary: yeast display, Sf9 membrane polyspecificity reagent, FACS + sequencing; frameworks hold sequencing errors
Recorded Metric: polyreactivity (PSR sort gate)

Sequence Content	Result Value
HVQLEESGGGLDQAGGSLRLSCAASGITFVRNAMGWYRQAPGKERELVAVITSGGGTYYADSVKGRFTISRDNAKNTVYLQMNSLKPEDTAVYYWAGDIHVNGSGYWGKGTQVTVSS	low polyreactivity
QVQLVESGGGLVQAGGSLRLSCADSGRTFCKYVMRWYRQAPGKERELVAVISRPAGSTYYADSVKGRFTISRDNAKNTVYLQMNSLKPEDTAVYYCAKRPKNKPVLGDYDHWGQGTQVTVSS	low polyreactivity
QVQLVESGGGLVQAGGSLRLSCAASGRIFRYYAMGSYRQAPGKERELVAAISRSGGSTYYADSVKGRFTISRDNAKNTVYLQMNSLKPEDTAVYSCAARLAGRGSSSSRVVRTGGYWGQGTQVTVSS	high polyreactivity
QVQLVESGGGLVQAGGRLRLSCAASGRIFNHYAMGWYRQAPGKERELVAAITFSGGSTYYADSVKGRFTISRDNAKNTVHLQMNSLKPEHTAVYYCANRFSYRYGLQYDYWGQGTQGTVSS	high polyreactivity

Report polyreactivity (PSR sort gate) for every entry below.
1. QVQLVESGGGLVQEGGSLRLICEASGFIFYNYAMGWYRQAPGKERELVAAISSSGGRTYYADSVKGRFTISRDNAKNTVYLQMNRLKREDTAVYYCNARVNYKGYDYWGQGTQVTVSS
2. QVQLQESGGLVQAGGMRLSCEASGSVSYQEAMGWYRQAPGKERELVATISFGANTNYADIVKGRFTISRDNAKNTVYLQMNSLKPEDTAVYYCAAESLFDDYYGYWGQGTQVTVSS
3. RVQLQESGGGLVQAGGSLRLSCAASGTIFIRGDMGWYRQAPGKEREFVATIDTGSNTYNADSEKGRFTISRDNAKNAVYLQMNCLKPGDTAVYYCVVDYQLSGRLRYWGQGTQVTLSS
4. QVQLVESGGGLVQAGGSLRLSCAASGSTYSWYVMGWYRQAPGKERELVAAISYRGGRTYYADSVKGRFTISRDNAKNTVYLQMNSLKPEDTAVYYCAARGVVDAGRTNRPYDYWGQGTQVTVSS
5. QVQLVESGGGLLQAGGSLRLSCAASGFIFRFNAMGWYRQAPWTERELVAVIRWSSGSTYYADSVKGRFTISRDNAKNTVYLQMNSRKPEDTAVYYCAAVDDEYSIVWYDYWGQGTQVTVSA

Ans.
1. high polyreactivity
2. low polyreactivity
3. low polyreactivity
4. low polyreactivity
5. low polyreactivity

Go through the list and state polyreactivity (PSR sort gate) for each entry.
1. QVQLVESGGGSVQAGGSLRLSCAASGFTIRTYAMGWYRQAPGKESELVAAITSSGSSTYYAYSVKGRFTISRDNAKNTVYLQMNSLKPEDTAVYYCAADAPRSYRFGYWGQGTQVTVSS
2. QVQLVESGGGLVQAGGSLRLSCAASGSIFYLNAMGWYRQAPGKERELVAAINRGGSTSYADSVKGRFTISRDNAKNTVYLQMNSLKPEDTAVYYCAADHGGVQYSVRYDYWGQGTQVTVSS
3. QVQIEESGGRLVQAGGILRLSCAASGRPFNVNFKGWNRQAPGKEWELVAAIRYTGGSTYADSVKGRFTISRDNAKNTVYLQMNSLKPEDTAVYYCNADTVFPFDHGMDYWGQGTQVTVSS
4. QVQLVESGGGLVQAGGSLRLSCAASGRIFKSYAMGWDRQAPGKERELVAAISRSGGRTYYADSVKGRFTISRDNAKNTVYLQMNSLKPEDTAVYYCAATTIVAPYWGQGTQVTVSS
5. QVQHVESGGGLVQAGGSLRLSCAASGSTFLVYAMGWYRQAPGKERELVAAISGAGSTTYADSVKGRFTISRDNAKNTVYLQMNSMKPEDTAVSYCNARTVAIWSERYYWGQGTQVTVSS
6. QVQLVESGGGLVQAGGSLRLSCAASGSTFRINAMGWYRQAPGKERELVADINSGGNTTYADSVKGRFTISRDNAKNTVYLQMNSLKPEDTAVYYCAADPVFDLWEFLLDYGYDYWGQGTQVTVSS
7. QVQLQESGGGLVHPGGSLRLSCAASCSISHYIFMGWYRQAPGKEREFVAGIGYGGTTNYADSVKGRFTISRDNAKNTVYLQMNSLKPEDTAMYYCAAREATEFYLYYWGQGTQVTVSS

Ans.
1. high polyreactivity
2. low polyreactivity
3. low polyreactivity
4. low polyreactivity
5. low polyreactivity
6. low polyreactivity
7. low polyreactivity
